Taken from ChEMBL document CHEMBL1151299.

- systemUnderTest: Aldo-keto reductase family 1 member B1 (Rattus norvegicus)
- method: Inhibition of rat lens aldose reductase at 1 uM
readoutKind: inhibition (%)
Give bare numbers, in %.

COc1c(O)cc2oc(-c3ccc(O)c(O)c3)c(O[C@@H]3O[C@H](CO[C@@H]4O[C@@H](C)[C@H](O)[C@@H](O)[C@H]4O)[C@H](O)[C@H](O)[C@H]3O)c(=O)c2c1O : 33
O=C(O)CN1C(=O)c2cccc3cccc(c23)C1=O : 40
COc1c(O)cc2oc(-c3ccc(O)c(O)c3)c(O[C@@H]3O[C@H](CO)[C@H](O)[C@H](O)[C@H]3O)c(=O)c2c1O : 38

Kindly consider the entry below.
May I ask what inhibition has been recorded for COc1c(O)cc2oc(-c3ccc(O)cc3)c(O[C@@H]3O[C@H](CO[C@@H]4O[C@@H](C)[C@H](O)[C@@H](O)[C@H]4O)[C@H](O)[C@H](O)[C@H]3O)c(=O)c2c1O ?
32
